assay: Intrinsic clearance in human liver microsomes; format: ADME, Microsome; details: read-out: CLH

[
  {
    "smilesNotation": "O=C(NCCCN1CCCC1)c1cccc(-c2ccccc2N2CCN(CCc3ccc(Cl)cc3)CC2)c1",
    "unitSpec": "µL/min/mg",
    "microsomal CLint": 30
  },
  {
    "smilesNotation": "N#Cc1cc(C(=O)NCCCN2CCCC2)cc(-c2ccccc2N2CCN(CCc3ccc(Cl)c(Cl)c3)CC2)c1",
    "unitSpec": "µL/min/mg",
    "microsomal CLint": 73
  },
  {
    "smilesNotation": "N#Cc1cc(C(=O)NCCCN2CCCC2)cc(-c2ccccc2N2CCN(CCc3c[nH]c4ccccc34)CC2)c1",
    "unitSpec": "µL/min/mg",
    "microsomal CLint": 21
  },
  {
    "smilesNotation": "O=C(NCCCN1CCCC1)c1cccc(-c2ccccc2N2CCN(CCc3c[nH]c4ccccc34)CC2)c1",
    "unitSpec": "µL/min/mg",
    "microsomal CLint": 16
  },
  {
    "smilesNotation": "Cc1cccc(CCN2CCN(c3ccccc3-c3cc(C#N)cc(C(=O)NCCCN4CCCC4)c3)CC2)c1",
    "unitSpec": "µL/min/mg",
    "microsomal CLint": 43
  },
  {
    "smilesNotation": "COc1cccc(CCN2CCN(c3ccccc3-c3cc(C#N)cc(C(=O)NCCCN4CCCC4)c3)CC2)c1",
    "unitSpec": "µL/min/mg",
    "microsomal CLint": 74
  },
  {
    "smilesNotation": "O=C(NCCCN1CCCC1)c1cccc(-c2ccccc2N2CCN(CCc3ccccc3)CC2)c1",
    "unitSpec": "µL/min/mg",
    "microsomal CLint": 30
  },
  {
    "smilesNotation": "COc1cccc(CCN2CCN(c3ccccc3-c3cccc(C(=O)NCCCN4CCCC4)c3)CC2)c1",
    "unitSpec": "µL/min/mg",
    "microsomal CLint": 36
  },
  {
    "smilesNotation": "O=C(NCCCN1CCCC1)c1cccc(-c2ccccc2N2CCN(CCc3ccc(Cl)c(Cl)c3)CC2)c1",
    "unitSpec": "µL/min/mg",
    "microsomal CLint": 68
  },
  {
    "smilesNotation": "Cc1cccc(CCN2CCN(c3ccccc3-c3cccc(C(=O)NCCCN4CCCC4)c3)CC2)c1",
    "unitSpec": "µL/min/mg",
    "microsomal CLint": 35
  }
]
